B1: DYRK1B (parent)
chain: RFQDLVLRMLEYEPAARISPLGAL

variants of: B1; experiment: protein stability index of a GFP-peptide fusion (GPS, HEK-293T) (PSI 1-6); higher = more stable; conditions: c terminus: a fixed tail appended;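 also: lentivirally expressed fusions sorted by FACS into six bins by GFP to DsRed ratio, PSI derived from sequencing read proportions per bin multiplied by bin number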
Measurement kind: protein stability index

sequence_data="RFQDLVLRMLEYLPAARISPLGAL [E13L]" measurement_kind="protein stability index" result=2.27
sequence_data="RFQDLILRMLEYEPAARISPLGAL [V6I]" measurement_kind="protein stability index" result=2.23
sequence_data="RFQDLVLRMLEYEPAARISPLGDL [A23D]" measurement_kind="protein stability index" result=1.42
sequence_data="RNQDLVLRMLEYEPAARISPLGAL [F2N]" measurement_kind="protein stability index" result=2.14
sequence_data="RFQDLVLRMLEYEPAARTSPLGAL [I18T]" measurement_kind="protein stability index" result=1.3
sequence_data="RFQDLGLRMLEYEPAARISPLGAL [V6G]" measurement_kind="protein stability index" result=1.88
sequence_data="RFQILVLRMLEYEPAARISPLGAL [D4I]" measurement_kind="protein stability index" result=1.1
sequence_data="RFQDLVLRMLEYEPAARISNLGAL [P20N]" measurement_kind="protein stability index" result=3.12
sequence_data="RFQDLVLRMGEYEPAARISPLGAL [L10G]" measurement_kind="protein stability index" result=1.66
sequence_data="RFQDLVTRMLEYEPAARISPLGAL [L7T]" measurement_kind="protein stability index" result=2.3
sequence_data="RFQDLVLRMLEYEPAARISSLGAL [P20S]" measurement_kind="protein stability index" result=2.53
sequence_data="RFQDLVLRMLEYEPAARISPLKAL [G22K]" measurement_kind="protein stability index" result=2.67
